assay: Cmax in overnight-fasted ICR mouse plasma at 30 mg/kg, po and measured upto 8 hrs by LC-MS/MS analysis; format: ADME, organism-based; set-up: dose 30 mg/kg, time < 8 hrs, route po

molecule	Cmax
CC1C(=O)N(CC(=O)N(CCOCCOCCOCCOCCOCCOCCOCCOCCN(CC(=O)O)C(=O)CCc2cc(Cl)c(Oc3ccsc3C(=O)N3CCN(C4CC4)c4ccccc43)cc2Cl)CC(=O)O)CCCN1C(=O)C[C@H](N)Cc1cc(F)c(F)cc1F (mixture of isomers)	8.3 ng/mL

---

Below, each of the compounds is paired with its reported pEC50 value.
Target: G-protein coupled bile acid receptor 1 (Homo sapiens, UniProt Q8TDU6)
Sequence (Q8TDU6 whole entry): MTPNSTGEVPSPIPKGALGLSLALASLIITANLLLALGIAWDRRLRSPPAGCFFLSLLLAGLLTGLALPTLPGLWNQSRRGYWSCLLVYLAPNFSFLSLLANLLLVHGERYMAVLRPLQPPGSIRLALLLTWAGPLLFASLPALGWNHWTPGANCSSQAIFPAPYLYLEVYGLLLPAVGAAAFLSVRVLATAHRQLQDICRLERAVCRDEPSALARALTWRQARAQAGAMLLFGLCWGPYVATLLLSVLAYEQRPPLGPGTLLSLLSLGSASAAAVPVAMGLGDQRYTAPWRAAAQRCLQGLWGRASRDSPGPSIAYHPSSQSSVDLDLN
Assay: Agonist activity at human TGR5 expressed in human HEK293 cells co-expressing CRE-driven luciferase reporter gene assessed as luciferase activity incubated for 5.5 hrs by Steady-Glo based luciferase assay
pEC50: −log10 of the molar value.

compound	inequality-symbol	pEC50
N[C@@H](CC(=O)N1CCCN(CC(=O)NCCOCCOCCOCCOCCOCCNC(=O)CCc2cc(Cl)c(Oc3ccsc3C(=O)N3CCN(C4CC4)c4ccccc43)cc2Cl)C(=O)C1Cc1ccccc1)Cc1cc(F)c(F)cc1F (mixture of isomers)	=	8.31
CC1C(=O)N(CC(=O)NCCN(C)C(=O)CCc2cc(Cl)c(Oc3ccsc3C(=O)N3CCN(C4CC4)c4ccccc43)cc2Cl)CCCN1C(=O)C[C@H](N)Cc1cc(F)c(F)cc1F (mixture of isomers)	=	7.83
C.N[C@@H](CC(=O)N1CCCN(CC(=O)NCCOCCOCCOCCOCCOCCOCCOCCOCCNC(=O)CCc2cc(Cl)c(Oc3ccsc3C(=O)N3CCN(C4CC4)c4ccccc43)cc2Cl)C(=O)C1Cc1ccccc1)Cc1cc(F)c(F)cc1F (mixture of isomers)	=	8.42
CC1C(=O)NCCCN1C(=O)C[C@H](N)Cc1cc(F)c(F)cc1F (mixture of isomers)	<	6.00
N[C@@H](CC(=O)N1CCCN(CC(=O)NCCOCCOCCOCCOCCOCCOCCOCCNC(=O)CCc2cc(Cl)c(Oc3ccsc3C(=O)N3CCN(C4CC4)c4ccccc43)cc2Cl)C(=O)C1Cc1ccccc1)Cc1cc(F)c(F)cc1F (mixture of isomers)	=	8.44
CC1C(=O)N(CC(=O)NCCOCCOCCOCCOCCOCCOCCNC(=O)CCc2cc(Cl)c(Oc3ccsc3C(=O)N3CCN(C4CC4)c4ccccc43)cc2Cl)CCCN1C(=O)C[C@H](N)Cc1cc(F)c(F)cc1F.F (mixture of isomers)	=	8.55
CC1C(=O)N(CC(=O)NCCOCCOCCOCCOCCOCCNC(=O)CCc2cc(Cl)c(Oc3ccsc3C(=O)N3CCN(C4CC4)c4ccccc43)cc2Cl)CCCN1C(=O)C[C@H](N)Cc1cc(F)c(F)cc1F (mixture of isomers)	=	8.60
O=C(O)CCc1cc(Cl)c(Oc2ccsc2C(=O)N2CCN(C3CC3)c3ccccc32)cc1Cl	=	7.95
